Give AC50 for every item shown.
SYSTEM UNDER TEST: PKM2 (Homo sapiens)
Sequence (P14618 whole entry): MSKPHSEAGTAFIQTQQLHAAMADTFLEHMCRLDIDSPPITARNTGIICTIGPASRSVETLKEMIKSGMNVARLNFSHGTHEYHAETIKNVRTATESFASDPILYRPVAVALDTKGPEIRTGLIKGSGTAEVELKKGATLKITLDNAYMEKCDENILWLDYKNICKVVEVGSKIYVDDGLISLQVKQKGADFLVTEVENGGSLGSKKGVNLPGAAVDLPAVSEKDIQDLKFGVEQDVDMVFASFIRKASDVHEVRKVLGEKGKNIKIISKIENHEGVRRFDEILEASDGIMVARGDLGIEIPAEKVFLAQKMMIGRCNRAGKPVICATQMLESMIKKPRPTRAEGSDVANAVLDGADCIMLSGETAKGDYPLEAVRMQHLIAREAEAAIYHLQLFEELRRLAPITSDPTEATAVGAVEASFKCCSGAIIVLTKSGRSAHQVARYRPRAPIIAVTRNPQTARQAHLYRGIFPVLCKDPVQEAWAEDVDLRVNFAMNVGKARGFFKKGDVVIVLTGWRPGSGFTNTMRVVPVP
ASSAY NOTES: PKM2 Assay (activation, LDH-coupled, absorbance at 340 nm)
Assay type: biochemical
CONDITION NOTES: Table 5

Req: // AC50 lookup, key: CC(c1cc(F)cc(F)c1)N1CCN(C(=O)c2ccc(NS(=O)(=O)c3cccc4cccnc34)cc2)CC1 (centres unmarked) [Compound 331]
Resp: < 100 nM

Req: Fill in: AC50 of O=C(c1ccc(NS(=O)(=O)c2cccc3cccnc23)c(OC(F)(F)F)c1)N1CCN(CC2CCOC2)CC1 (centres unmarked) [Compound 302] is ___
Resp: 500 to 1000 nM

Req: Look up AC50: COc1cc(NS(=O)(=O)c2cccc3cccnc23)ccc1C(=O)N1CCN(C2(c3ccccc3)CC2)CC1 [Compound 393]
Resp: < 100 nM

Req: # input compound: O=C(c1ccc(NS(=O)(=O)c2cccc3cccnc23)c(OC(F)(F)F)c1)N1CCN(Cc2ccc(Cl)cc2F)CC1 [Compound 339] ; wanted: its AC50
Resp: 100 to 500 nM

Req: // lookup AC50 for CC(C1CC1)N1CCN(C(=O)c2ccc(NS(=O)(=O)c3cccc4cccnc34)cc2)CC1 (centres unmarked) [Compound 442]
Resp: < 100 nM

Req: Given the compound [2H]C(c1cc(F)cc(F)c1)N1CCN(C(=O)c2ccc(NS(=O)(=O)c3cccc4cccnc34)cc2)CC1 (centres unmarked) [Compound 450] , what is its reported AC50?
Resp: < 100 nM

Req: Need AC50, item O=C(c1ccc(NS(=O)(=O)c2cccc3cccnc23)c(OC(F)(F)F)c1)N1CCN(Cc2cccc(F)c2)CC1 [Compound 377]
Resp: 100 to 500 nM

Req: Entry under review: CC(c1c(F)ccc(F)c1F)N1CCN(C(=O)c2ccc(NS(=O)(=O)c3cccc4cccnc34)cc2)CC1 (centres unmarked) [Compound 404] . Reported AC50?
Resp: < 100 nM

Req: Report AC50 for O=C(c1ccc(NS(=O)(=O)c2cccc3cccnc23)cc1)N1CCN(C(=O)c2cncs2)CC1 [Compound 348] please.
Resp: < 100 nM

Req: Any idea what its AC50 is? The compound is O=C(c1ccc(NS(=O)(=O)c2cccc3cccnc23)c(OC(F)(F)F)c1)N1CCN(Cc2cc(Cl)cc(Cl)c2)CC1 [Compound 391]
Resp: 100 to 500 nM

Req: Record request: AC50 value, item CC(c1cc(F)c(F)c(F)c1)N1CCN(C(=O)c2ccc(NS(=O)(=O)c3cccc4cccnc34)cc2)CC1 (centres unmarked) [Compound 398]
Resp: 1000 to 20000 nM

Req: // query AC50 value for entry O=C(c1ccc(NS(=O)(=O)c2cccc3cccnc23)c(OC(F)(F)F)c1)N1CCN(C(=O)c2ccccc2F)CC1 [Compound 360]
Resp: 100 to 500 nM

Req: Field request: AC50 | item: O=C(c1ccc(NS(=O)(=O)c2cccc3cccnc23)cc1)N1CCN(C2(c3ccccc3)CC2)CC1 [Compound 330]
Resp: < 100 nM

Req: Please report the recorded AC50 for COc1ncccc1CN1CCN(C(=O)c2ccc(NS(=O)(=O)c3cccc4cccnc34)c(OC(F)(F)F)c2)CC1 [Compound 368] .
Resp: 100 to 500 nM
